- assayed-target: T1, Peptide 4: Biotin-AGGGGSGGGGSGGGGSAAA-Tyr-acid (N-terminal biotin; C-terminal acid; no PC)
- T1 construct: control peptide without PC
- T1 peptide: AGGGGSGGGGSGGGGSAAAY
- method-notes: scFv ELISA
OD450 by entry:
Expressed in OD450, but write only the number.

[in] What value of measured OD450 is listed for PcOxP_DB02_E09 (scFv, V domains shown, scFv in periplasmic extract) VH: EVQLLESGGGLVQPGGSLRLSCAASGFTFSDYYMEWVRQAPGKGLEWVAASRWKANDYTTEYADSVKGRFTISRDNSKNTLYLQMNSLRAEDTAVYYCARDYYGSSYWYFDVWGQGTLVTVSS VL: DIVMTQSPDSLAVSLGERATINCTASESLYSSKHKVHYLAWYQQKPGQPPKLLIYGASTRYSGVPDRFSGSGSGTDFTLTISSLQAEDVAVYYCAQFYTYPLTFGGGTKVEIK ?
[out] 0.04

[in] Which OD450 reading was recorded for the binder PcOxP_DB01_A04 (scFv, V domains shown, scFv in periplasmic extract) VH: EVQLLESGGGLVQPGGSLRLSCAASGFTHSDFYMEWVRQAPGKGLEWVAASRNKANDYTTEYADSVKGRFTISRDNSKNTLYLQMNSLRAEDTAVYYCARDYYGSSYWYFDVWGQGTLVTVSS VL: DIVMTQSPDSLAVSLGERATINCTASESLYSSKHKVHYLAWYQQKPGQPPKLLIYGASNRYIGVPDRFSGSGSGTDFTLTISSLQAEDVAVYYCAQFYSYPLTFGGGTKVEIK ?
[out] 0.04

Further cases:
[in] For the binder PcOxP_DB01_H07 (scFv, V domains shown, scFv in periplasmic extract) VH: EVQLLESGGGLVQPGGSLRLSCAASGFTFSDHYMEWVRQAPGKGLEWVAASRNKYNDYTTEYADSVKGRFTISRDNSKNTLYLQMNSLRAEDTAVYYCARDIYGSSYWYFDVWGQGTLVTVSS VL: DIVMTQSPDSLAVSLGERATINCTASESVYSSKNKKHYLAWYQQKPGQPPKLLIYGASNRYIGVPDRFSGSGSGTDFTLTISSLQAEDVAVYYCAQFYSYPLTFGGGTKVEIK , what OD450 is on record?
[out] 0.05

[in] // lookup OD450 for PcOxP_DB01_E09 (scFv, V domains shown, scFv in periplasmic extract) VH: EVQLLESGGGLVQPGGSLRLSCAASGNTFSDFYMEWVRQAPGKGLEWVAASRNKANDYTTEYADSVKGRFTISRDNSKNTLYLQMNSLRAEDTAVYYCARDYYGSSYWYFDVWGQGTLVTVSS VL: DIVMTQSPDSLAVSLGERATINCTASESLYSSKHKVHYLAWYQQKPGQPPKLLIYGASNRYIGVPDRFSGSGSGTDFTLTISSLQAEDVAVYYCANFYSYPLTFGGGTKVEIK
[out] 0.04

[in] Given the entry PcOxP_DB04_B08 (scFv, V domains shown, scFv in periplasmic extract) VH: EVQLLESGGGLVQPGGSLRLSCAASGFTFSDDYMEWVRQAPGKGLEWVAASRNKANDYTTEYADSVKGRFTISRDNSKNTLYLQMNSLRAEDTAVYYCARDYYGSSYWYFDVWGQGTLVTVSS VL: DIQMTQSPSSLSASVGDRVTITCTASESLYSSKHKVHYLAWYQQKPGKAPKLLIYGLSNRYIGVPSRFSGSGSGTDFTLTISSLQPEDFATYYCAQFFSYPLTFGGGTKVEIK , report its measured OD450.
[out] 0.06

// provenance: patent US20250320312A1
